experimentalProtocol: ADME solubility determination at pH 2.0 and pH 7.4
Assay type: physicochemical
assayConditions: aqueous buffer, thermodynamic from solid; PBS pH 2.0, shaken at 25° C. for 24 hours, LC-MS/MS; read-out: Solubility at pH 2.0
Measured solubility at 24 h, listed per entry for reference.

As a guide, the following entries are already answered.
- compound: "CCn1c(-c2ccc(Cn3nc(OC)c4cnc(-c5c(OC)ncnc5C5CC5)nc43)cc2)nc(C(F)(F)F)c1Br"
  resultType: "solubility at 24 h"
  val: "< 10 µM"
- compound: "COc1ncnc(C2CC2)c1-c1ncc2nc(C(C)C)n(Cc3ccc(-c4nc(C(F)(F)F)cn4C(C)C)cc3)c2n1"
  resultType: "solubility at 24 h"
  val: "< 10 µM"
- compound: "CC(C)c1ncccc1-c1ncc2cnn(Cc3ccc(-c4nc(C(F)(F)F)cn4C)cc3)c2n1"
  resultType: "solubility at 24 h"
  val: "> 10 µM"
- compound: "COc1ncnc(C2CC2)c1-c1ncc2cnn(Cc3ccc(-c4nc(C(F)(F)F)cn4CC(C)F)cc3)c2n1 (stereo not shown)"
  resultType: "solubility at 24 h"
  val: "> 10 µM"
- compound: "COc1cnn(C2CC2)c1-c1ncc2cnn(Cc3ccc(-c4nc(C(F)(F)F)cn4C)cc3)c2n1"
  resultType: "solubility at 24 h"
  val: "< 10 µM"

Write down solubility at 24 h measured for item CSc1ncnc(C)c1-c1ncc2cnn(Cc3ccc(-n4nc(C(F)(F)F)cc4C)cc3)c2n1
< 10 µM

Write down solubility at 24 h measured for item CCn1cc(C(F)(F)F)nc1-c1ccc(Cn2nc(N3CCC3)c3cnc(-c4c(OC)ncnc4C4CC4)nc32)cc1
> 10 µM

* * *

Measured half-life at 1 μM, listed per entry for reference.
experimentalProtocol: Liver microsomal stability, rat liver microsomes
Type: in vitro ADME
assayConditions: 1 μM compound, NADPH, read-out: t1/2 (min) in RLM

As a guide, the following entries are already answered.
- compound: "COc1ncnc(C2CC2)c1-c1ncc2cnn(Cc3ccc(-c4nc(C(F)(F)F)cn4CCF)cc3)c2n1 [Example 137]"
  resultType: "half-life at 1 μM"
  val: "> 25 min"
- compound: "COc1ncnc(C2CC2)c1-c1ncc2cnn(Cc3ccc(-c4nc(C(F)(F)F)nn4C)cc3)c2n1 [Example 56]"
  resultType: "half-life at 1 μM"
  val: "> 25 min"

Write down half-life at 1 μM measured for item COc1ncnc(C2CC2)c1-c1ncc2nc(C3CC3)n(Cc3ccc(-n4nc(C(F)(F)F)cc4C)cc3)c2n1 [Example 213]
> 25 min

Write down half-life at 1 μM measured for item COc1cn(C(C)C)c(-c2ccc(Cn3ncc4cnc(-c5c(OC)ncnc5C5CC5)nc43)cc2)n1 [Example 74]
< 25 min

* * *

Measured half-life at 1 μM, listed per entry for reference.
experimentalProtocol: Liver microsomal stability, human liver microsomes
Assay type: in vitro ADME
assayConditions: 1 μM compound, NADPH, read-out: t1/2 (min) in HLM

As a guide, the following entries are already answered.
- compound: "CCn1cc(C(F)(F)F)nc1-c1ccc(Cn2ncc3cnc(-c4c(OC)cnn4C4CCC4)nc32)cc1"
  resultType: "half-life at 1 μM"
  val: "< 25 min"
- compound: "CC(C)c1ccccc1-c1ncc2cnn(C(C)c3ccc(-c4nc(C(F)(F)F)cn4C)cc3)c2n1 (stereo not drawn)"
  resultType: "half-life at 1 μM"
  val: "< 25 min"
- compound: "CCOc1nn(Cc2ccc(-c3nc(C(F)(F)F)cn3CC)cc2)c2nc(-c3c(OC)ncnc3C3CC3)ncc12"
  resultType: "half-life at 1 μM"
  val: "> 25 min"

Write down half-life at 1 μM measured for item COc1ncnc(C2CC2)c1-c1ncc2cnn(C(C)c3ccc(-c4nc(C(F)(F)F)cn4CCF)cc3)c2n1 (stereo not drawn)
> 25 min

Write down half-life at 1 μM measured for item COCCOc1ncnc(C)c1-c1ncc2cnn(Cc3ccc(-n4nc(C(F)(F)F)cc4C)cc3)c2n1
< 25 min

Write down half-life at 1 μM measured for item COc1ncnc(C2CC2)c1-c1ncc2nc(C)n(Cc3ccc(-n4nc(C(F)(F)F)cc4C)cc3)c2n1
< 25 min

Write down half-life at 1 μM measured for item COc1ncnc(C2CC2)c1-c1ncc2cnn(Cc3ccc(-c4nc(C(F)(F)F)c(Br)n4C)cc3)c2n1
> 25 min

Write down half-life at 1 μM measured for item Cc1nn(Cc2ccc(-c3nc(C(F)(F)F)cn3C)cc2)c2nc(-c3ccccc3C(C)C)ncc12
< 25 min
